tested on: RAW-Dual; experiment: NF-kB SEAP reporter activity, fold change vs agonist alone; cytotoxicity flag (confluency mask): cytotoxic (confluency <70% of control); higher = enhanced NF-kB activity; settings: agonist: LPS (TLR4) 0.1 ug/mL
Over roughly 2,900 compounds, “NF-kB SEAP reporter activity, fold change vs agonist alone” has its median near 0.99; the highest 2% begin near 2.6. The list comes from a sample in which the highest values are over-represented; it also holds close analogues and randomly drawn compounds.
Lab note: compare NF-kB SEAP reporter activity against 0.4. Equal or greater, write Satisfied. Smaller, write Not satisfied.

compound="CCc1cnn2c(NCc3ccc[n+]([O-])c3)cc(N3CCCCC3CCO)nc12 (stereo not given) (library stock concentration (final ~1000-fold dilution): 10 mM)" assigned_class="Not satisfied"
compound="Cc1ccc(Oc2ccnc3cc(-c4cnn(C5CCNCC5)c4)ccc23)cc1 (library stock concentration (final ~1000-fold dilution): 10 mM)" assigned_class=Satisfied
compound="CN1CCN(Cc2ccc(NC(=O)Nc3ccc(Oc4ccnc(N)n4)cc3)cc2C(F)(F)F)CC1 (library stock concentration (final ~1000-fold dilution): 10 mM)" assigned_class="Not satisfied"
compound="CCCCCOc1ccc(-c2ccc(-c3ccc(C(=O)NC4CC(O)C(O)NC(=O)C5C(O)C(C)CN5C(=O)C(C(C)O)NC(=O)C(C(O)C(O)c5ccc(O)cc5)NC(=O)C5CC(O)CN5C(=O)C(C(C)O)NC4=O)cc3)cc2)cc1 (stereo not given) (library stock concentration (final ~1000-fold dilution): 10 mM)" assigned_class=Satisfied
compound="C1=CCOCc2cc(ccc2OCCN2CCCC2)Nc2nccc(n2)-c2cccc(c2)COC1 (library stock concentration (final ~1000-fold dilution): 10 mM)" assigned_class=Satisfied
compound="Nc1ncc(-c2ccnc(Nc3ccncc3)n2)c(CC2CC2)n1 (library stock concentration (final ~1000-fold dilution): 10 mM)" assigned_class=Satisfied
compound="NS(=O)(=O)OC[C@H]1C[C@@H](Nc2ccnc3cc(-c4cccc(SC(F)(F)F)c4)nn23)[C@H](O)[C@@H]1O (library stock concentration (final ~1000-fold dilution): 10 mM)" assigned_class="Not satisfied"
compound="O=C(/C=C/c1ccc(CN(CCO)CCc2c[nH]c3ccccc23)cc1)NO (library stock concentration (final ~1000-fold dilution): 10 mM)" assigned_class=Satisfied
compound="Cc1nc(Nc2cnn(C3CCNCC3)c2)nc2c1N(C)C(=O)c1cc3ccccc3cc1N2C (library stock concentration (final ~1000-fold dilution): 10 mM)" assigned_class=Satisfied
compound="CCC1(O)C(=O)OCc2c1cc1n(c2=O)Cc2cc3c(CN(C)C)c(O)ccc3nc2-1.Cl (stereo not given) (library stock concentration (final ~1000-fold dilution): 10 mM)" assigned_class=Satisfied
